Each recorded value in this set is attributed to patent US20220265629A1.

# assay info: Single ascending oral dose study in healthy volunteers: plasma pharmacokinetics
# Format: in vivo, human
# condition description: human, plasma, oral, 10 mg; read-out: Mean Residence Time, Mean
endpoint label: MRT (h)
// units = h; emit number, no label

Entry Cn1cc(S(=O)(=O)[C@@](C)(F)C2CCN(C(=O)Nc3ccon3)CC2)c(C(F)F)n1 ; MRT = 21.2

* * *

# assay info: Single ascending oral dose study in healthy volunteers: plasma pharmacokinetics
# Format: in vivo, human
# condition description: human, plasma, oral, 175 mg; read-out: AUC0-∞, Median
endpoint label: AUC(0-inf) (ng·h/mL)
// units = ng·h/mL; emit number, no label

Entry Cn1cc(S(=O)(=O)[C@@](C)(F)C2CCN(C(=O)Nc3ccon3)CC2)c(C(F)F)n1 ; AUC(0-inf) = 39700

* * *

# assay info: Food effect cross-over study, 200 mg (25 mg tablets), healthy volunteers: plasma pharmacokinetics
# Format: in vivo, human
# condition description: human, plasma, oral, 18 hours postdose, Fed, read-out: Plasma concentration, Median
# Protocol: This example describes a clinical study for establishing, in healthy volunteers, the effect of a high fat, high caloric meal on the PK profile of Compound I, as compared to administration of the drug in the fasted state. The study also was intended to determine the safety and tolerability after a single oral dose of Compound I in the fed and fasted state in healthy volunteers. […] Plasma drug concentrations were measured as described in Example 1 above. […]
endpoint label: concentration at 18 h (ng/mL)
// units = ng/mL; emit number, no label

Entry Cn1cc(S(=O)(=O)[C@@](C)(F)C2CCN(C(=O)Nc3ccon3)CC2)c(C(F)F)n1 ; concentration at 18 h = 2060

* * *

# assay info: Single ascending oral dose study in healthy volunteers: plasma pharmacokinetics
# Type: in vivo, human
# condition description: human, plasma, oral, 50 mg, 12 Hours Postdose; 50 mg; read-out: Plasma concentration, Median
endpoint label: concentration at 12 h (ng/mL)
// units = ng/mL; emit number, no label

Entry Cn1cc(S(=O)(=O)[C@@](C)(F)C2CCN(C(=O)Nc3ccon3)CC2)c(C(F)F)n1 ; concentration at 12 h = 297

* * *

# assay info: Single ascending oral dose study in healthy volunteers: plasma pharmacokinetics
# Type: in vivo, human
# condition description: human, plasma, oral, 10 mg, 24 Hours Postdose; 10 mg; read-out: Plasma concentration, Geometric Mean
endpoint label: concentration at 24 h (ng/mL)
// units = ng/mL; emit number, no label

Entry Cn1cc(S(=O)(=O)[C@@](C)(F)C2CCN(C(=O)Nc3ccon3)CC2)c(C(F)F)n1 ; concentration at 24 h = 56.3

* * *

# assay info: Single ascending oral dose study in healthy volunteers: plasma pharmacokinetics
# Assay type: in vivo, human
# condition description: human, plasma, oral, 525 mg; read-out: Half-Life Lambda Z, Mean (converted)
endpoint label: half-life

Entry Cn1cc(S(=O)(=O)[C@@](C)(F)C2CCN(C(=O)Nc3ccon3)CC2)c(C(F)F)n1 ; half-life = 15.1 h

* * *

# assay info: Food effect cross-over study, 200 mg (25 mg tablets), healthy volunteers: plasma pharmacokinetics
# Assay type: in vivo, human
# condition description: human, plasma, po, single 200 mg oral dose, Fed (N = 10), read-out: Tmax, Mean
endpoint label: Tmax (h)
// units = h; emit number, no label

Entry Cn1cc(S(=O)(=O)[C@@](C)(F)C2CCN(C(=O)Nc3ccon3)CC2)c(C(F)F)n1 ; Tmax = 6.9

* * *

# assay info: HFrEF study Part 2 (MAD Cohorts A-D): plasma pharmacokinetics
# Type: in vivo, human
# condition description: human, plasma, oral, 75 mg, MAD Cohort A, 75 mg BID (4 h fasting); steady state; individual subjects; read-out: AUC_TAU
endpoint label: AUC (ng·h/mL)
// units = ng·h/mL; emit number, no label

Entry Cn1cc(S(=O)(=O)[C@@](C)(F)C2CCN(C(=O)Nc3ccon3)CC2)c(C(F)F)n1 [Compound I] ; AUC = 46200

* * *

# assay info: Single ascending oral dose study in healthy volunteers: plasma pharmacokinetics
# Type: in vivo, human
# condition description: human, plasma, oral, 10 mg; read-out: Half-Life Lambda Z, Median (converted)
endpoint label: half-life (h)
// units = h; emit number, no label

Entry Cn1cc(S(=O)(=O)[C@@](C)(F)C2CCN(C(=O)Nc3ccon3)CC2)c(C(F)F)n1 [Compound I] ; half-life = 12.9

* * *

# assay info: Single ascending oral dose study in healthy volunteers: plasma pharmacokinetics
# Type: in vivo, human
# condition description: human, plasma, oral, 175 mg; read-out: Half-Life Lambda Z, Mean (converted)
endpoint label: half-life (h)
// units = h; emit number, no label

Entry Cn1cc(S(=O)(=O)[C@@](C)(F)C2CCN(C(=O)Nc3ccon3)CC2)c(C(F)F)n1 ; half-life = 15.8

* * *

# assay info: Single ascending oral dose study in healthy volunteers: plasma pharmacokinetics
# Format: in vivo, human
# condition description: human, plasma, oral, 175 mg; read-out: Half-Life Lambda Z, Geometric Mean (converted)
endpoint label: half-life
Answer with the value and then the unit.

Entry Cn1cc(S(=O)(=O)[C@@](C)(F)C2CCN(C(=O)Nc3ccon3)CC2)c(C(F)F)n1 [Compound I] ; half-life = 15.8 h

* * *

# assay info: Single ascending oral dose study in healthy volunteers: plasma pharmacokinetics
# Assay type: in vivo, human
# condition description: human, plasma, oral, 25 mg; read-out: Tmax, Median
endpoint label: Tmax (h)
// units = h; emit number, no label

Entry Cn1cc(S(=O)(=O)[C@@](C)(F)C2CCN(C(=O)Nc3ccon3)CC2)c(C(F)F)n1 [Compound I] ; Tmax = 5

* * *

# assay info: HFrEF study Part 2 (MAD Cohorts A-D): plasma pharmacokinetics
# Format: in vivo, human
# condition description: human, plasma, oral, 100 mg, MAD Cohort D, 100 mg BID (with food); steady state; Mean; read-out: AUC_TAU
endpoint label: AUC (ng·h/mL)
// units = ng·h/mL; emit number, no label

Entry Cn1cc(S(=O)(=O)[C@@](C)(F)C2CCN(C(=O)Nc3ccon3)CC2)c(C(F)F)n1 ; AUC = 60400

* * *

# assay info: Single ascending oral dose study in healthy volunteers: plasma pharmacokinetics
# Type: in vivo, human
# condition description: human, plasma, oral, 10 mg; read-out: Vz/F, Geometric Mean
endpoint label: Vd/F (L)
// units = L; emit number, no label

Entry Cn1cc(S(=O)(=O)[C@@](C)(F)C2CCN(C(=O)Nc3ccon3)CC2)c(C(F)F)n1 [Compound I] ; Vd/F = 57.1

* * *

# assay info: Single ascending oral dose study in healthy volunteers: plasma pharmacokinetics
# Assay type: in vivo, human
# condition description: human, plasma, oral, 50 mg; read-out: AUC0-24, Mean
endpoint label: AUC(0-t) (ng·h/mL)
// units = ng·h/mL; emit number, no label

Entry Cn1cc(S(=O)(=O)[C@@](C)(F)C2CCN(C(=O)Nc3ccon3)CC2)c(C(F)F)n1 ; AUC(0-t) = 7300

* * *

# assay info: Single ascending oral dose study in healthy volunteers: plasma pharmacokinetics
# Format: in vivo, human
# condition description: human, plasma, oral, 25 mg, 48 Hours Postdose; 25 mg; read-out: Plasma concentration, Geometric Mean
endpoint label: concentration at 48 h (ng/mL)
// units = ng/mL; emit number, no label

Entry Cn1cc(S(=O)(=O)[C@@](C)(F)C2CCN(C(=O)Nc3ccon3)CC2)c(C(F)F)n1 ; concentration at 48 h = 33.3

* * *

# assay info: Single ascending oral dose study in healthy volunteers: plasma pharmacokinetics
# Assay type: in vivo, human
# condition description: human, plasma, oral, 50 mg; read-out: AUC0-∞, Geometric Mean
endpoint label: AUC(0-inf) (ng·h/mL)
// units = ng·h/mL; emit number, no label

Entry Cn1cc(S(=O)(=O)[C@@](C)(F)C2CCN(C(=O)Nc3ccon3)CC2)c(C(F)F)n1 ; AUC(0-inf) = 11200

* * *

# assay info: Food effect cross-over study, 200 mg (25 mg tablets), healthy volunteers: plasma pharmacokinetics
# Format: in vivo, human
# condition description: human, plasma, oral, 1 hour postdose, Fed, read-out: Plasma concentration, Median
endpoint label: concentration at 1 h (ng/mL)
// units = ng/mL; emit number, no label

Entry Cn1cc(S(=O)(=O)[C@@](C)(F)C2CCN(C(=O)Nc3ccon3)CC2)c(C(F)F)n1 ; concentration at 1 h = 828

* * *

# assay info: Single ascending oral dose study in healthy volunteers: plasma pharmacokinetics
# Assay type: in vivo, human
# condition description: human, plasma, oral, 350 mg + 525 mg; read-out: AUC0-24, Geometric Mean
endpoint label: AUC(0-t) (ng·h/mL)
// units = ng·h/mL; emit number, no label

Entry Cn1cc(S(=O)(=O)[C@@](C)(F)C2CCN(C(=O)Nc3ccon3)CC2)c(C(F)F)n1 ; AUC(0-t) = 40900

* * *

# assay info: Food effect cross-over study, 200 mg (25 mg tablets), healthy volunteers: plasma pharmacokinetics
# Format: in vivo, human
# condition description: human, plasma, oral, 9 hours postdose, Fed, read-out: Plasma concentration, Geometric Mean
endpoint label: concentration at 9 h (ng/mL)
// units = ng/mL; emit number, no label

Entry Cn1cc(S(=O)(=O)[C@@](C)(F)C2CCN(C(=O)Nc3ccon3)CC2)c(C(F)F)n1 [Compound I] ; concentration at 9 h = 3050
